TARGET OR SYSTEM: T1, MMP14 catalytic domain (UniProt P50281 112-285)
T1 construct: Matrix Metalloproteinase 14 (MMP14), catalytic domain; source: expressed recombinantly and purified as published before [12]
TEST DETAILS: enzyme activity (inhibition) assay with a fluorogenic substrate; various concentrations of N-TIMP2 pre-incubated 1 hour with MMP9 (0.2 nM) or MMP14 (0.5 nM) in 50 mM Tris-HCl, 0.15 M NaCl, 10 mM CaCl2, 0.02% Brij 35, pH 7.5, 37°C; fraction of enzyme activity fitted to a 1:1 binding model to give Kd
CONDITION PARAMETERS: both partners purified
MEASUREMENT KIND: pKd
One number for each entry, as −log10 of the molar value.

Worked cases, answers included:
Task: # query: pKd of entry N-TIMP2 S4E (domain or fragment, human, UniProt P16035 27-153, looked up, TIMP2, human, N-terminal domain, residues 1-127; also called S04E) CSCEPVHPQQAFCNADVVIRAKAVSEKEVDSGNDIYGNPIKRIQYEIKQIKMFKGPEKDIEFIYTAPSSAVCGVSLDVGGKKEYLIAGKAEGDGKMHITLCDFIVPWDTLSTTQKKSLNHRYQMGCE
Output: 8.02

Task: Any idea what pKd was measured for N-TIMP2 T99Y (domain or fragment, human, UniProt P16035 27-153, looked up, TIMP2, human, N-terminal domain, residues 1-127) CSCSPVHPQQAFCNADVVIRAKAVSEKEVDSGNDIYGNPIKRIQYEIKQIKMFKGPEKDIEFIYTAPSSAVCGVSLDVGGKKEYLIAGKAEGDGKMHIYLCDFIVPWDTLSTTQKKSLNHRYQMGCE ?
Output: 8.98

Task: # pKd lookup, item N-TIMP2 S4R (domain or fragment, human, UniProt P16035 27-153, looked up, TIMP2, human, N-terminal domain, residues 1-127; also called S04R) CSCRPVHPQQAFCNADVVIRAKAVSEKEVDSGNDIYGNPIKRIQYEIKQIKMFKGPEKDIEFIYTAPSSAVCGVSLDVGGKKEYLIAGKAEGDGKMHITLCDFIVPWDTLSTTQKKSLNHRYQMGCE
Output: 8.57

Consider now this further binder.
Task: So what's the measured pKd for this one? N-TIMP2 I35K (domain or fragment, human, UniProt P16035 27-153, looked up, TIMP2, human, N-terminal domain, residues 1-127) CSCSPVHPQQAFCNADVVIRAKAVSEKEVDSGNDKYGNPIKRIQYEIKQIKMFKGPEKDIEFIYTAPSSAVCGVSLDVGGKKEYLIAGKAEGDGKMHITLCDFIVPWDTLSTTQKKSLNHRYQMGCE
Output: 9.42
